- ASSAY_PROCEDURE: PK data (IV/PO) in Sprague-Dawley rat
- Type: in vivo
- EXPERIMENTAL_PARAMETERS: Sprague-Dawley, rat, in vivo, iv, 0.25 mg/kg, IV 0.25 mg/Kg, read-out: Observed CL (converted)
READOUT_KIND: clearance

Noted for Nc1nc2cnc(C(=O)N3CCC[C@@H]4Oc5cc(OC(F)(F)F)ccc5[C@@H]43)cc2n2cncc12 : its clearance reads 3.5 mL/min/kg

----------
- Tested on: HCT116 MTAP-deleted cell lines
- ASSAY_PROCEDURE: Cell viability assay (CellTiter-Glo, 7 days), HCT116 MTAP-deleted
- Assay type: cell-based
- EXPERIMENTAL_PARAMETERS: Homo sapiens, HCT-116; cell viability, HCT116 MTAP-deleted; class symbols; read-out: CC50
# reported CC50; entries follow

The cases that follow already have their CC50 on record.
- COMPOUND: "[2H]C1([2H])CC[C@@H]2Oc3cc(C(F)(F)F)ccc3[C@@H]2N1C(=O)c1cc2c(cc1F)nc(N)c1cncn12"
  ASSAYED_SYSTEM: "HCT116 MTAP-deleted cell lines"
  READOUT_KIND: "CC50"
  RESULT: "< 100 nM"
- COMPOUND: "CN(C(=O)c1cc2c(cc1F)nc(N)c1cncn12)C1COCc2cc(C(F)(F)F)ccc21 (stereo not shown)"
  ASSAYED_SYSTEM: "HCT116 MTAP-deleted cell lines"
  READOUT_KIND: "CC50"
  RESULT: "< 100 nM"
- COMPOUND: "Nc1nc2cnc(C(=O)N3CCO[C@@H]4Cc5cc(OC(F)(F)F)ccc5[C@@H]43)cc2n2cncc12"
  ASSAYED_SYSTEM: "HCT116 MTAP-deleted cell lines"
  READOUT_KIND: "CC50"
  RESULT: "< 100 nM"
- COMPOUND: "CN(C(=O)c1cc2c(cc1F)nc(N)c1cncn12)[C@@H]1COc2cc(-c3ccc(C(F)(F)F)cn3)ccc21"
  ASSAYED_SYSTEM: "HCT116 MTAP-deleted cell lines"
  READOUT_KIND: "CC50"
  RESULT: "< 100 nM"
- COMPOUND: "CN(C(=O)c1ccc2nc(N)c3cncn3c2c1)C1CCc2nc(C(F)(F)F)ccc21 (stereo not shown)"
  ASSAYED_SYSTEM: "HCT116 MTAP-deleted cell lines"
  READOUT_KIND: "CC50"
  RESULT: "100 to 1000 nM"
- COMPOUND: "CN(Cc1ccc(Cl)cc1C#N)C(=O)c1cc2c(cc1F)nc(N)c1cncn12"
  ASSAYED_SYSTEM: "HCT116 MTAP-deleted cell lines"
  READOUT_KIND: "CC50"
  RESULT: "100 to 1000 nM"

--- query ---
Noted for COc1ccc2c(c1)CO[C@H]1CCCN(C(=O)c3cc4c(cc3F)nc(N)c3cncn34)[C@@H]21 (racemic) : its CC50 reads < 100 nM
